target: LSD-1 (Homo sapiens, UniProt O60341); assay: LSD-1 A-screen (AlphaScreen) demethylase enzymatic assay; assay type: biochemical; conditions: 50 μM compound; approximate values; read-out: Potency LSD-1 % Inhibition at 50 μM
Short version: inhibition at 50 µM at least 30% is criterion met, less is criterion not met.

INSERT INTO measurements (compound, assigned_category) VALUES
  ('CCn1cc(-c2nnn[nH]2)c(=O)c2c(N)c(F)c(NCCc3ccccc3)cc21', 'criterion not met'),
  ('CCn1cc(C(=O)O)c(=O)c2c(N)cc(NC3CCCCC3)c(F)c21', 'criterion met'),
  ('CC(C)n1cc(C(=O)O)c(=O)c2c(N)c(F)c(N[C@]3(C)C[C@@H](N[C@@H]4C[C@H]4c4ccccc4)C3)cc21 (relative stereo)', 'criterion not met'),
  ('CCn1cc(C(=O)O)c(=O)c2c(N)c(F)c(N[C@@H]3CC[C@H]3c3ccccc3)cc21 (relative stereo)', 'criterion not met'),
  ('CCn1cc(C(=O)O)c(=O)c2c(N)c(F)c(NC3CCOCC3)cc21', 'criterion not met'),
  ('CCn1cc(C(=O)O)c(=O)c2c(N)c(F)c(NC3CC3)cc21', 'criterion not met'),
  ('CCn1cc(C(=O)O)c(=O)c2c(N)c(F)c(NCc3ccccc3)cc21', 'criterion not met'),
  ('CCn1cc(C(=O)O)c(=O)c2c(N)c(F)c(NC3CCCC3)cc21', 'criterion not met'),
  ('CCn1cc(C(=O)O)c(=O)c2c(N)c(F)c(N[C@@H]3C[C@@H]3c3ccccc3)cc21 (relative stereo)', 'criterion not met'),
  ('CCn1cc(C(=O)O)c(=O)c2c(N)c(F)c(NC3CCC3)cc21', 'criterion met'),
  ('CCn1cc(C(=O)O)c(=O)c2c(N)c(F)c(N[C@@H]3CC[C@@H]3c3ccccc3)cc21 (relative stereo)', 'criterion not met'),
  ('CCn1cc(C(=O)O)c(=O)c2c(N)c(F)c(NCCc3ccccc3)cc21', 'criterion not met'),
  ('CCn1cc(C#N)c(=O)c2c(N)c(F)c(N[C@@H]3C[C@H]3c3ccccc3)cc21 (relative stereo)', 'criterion not met'),
  ('Nc1c(F)c(N[C@@H]2C[C@H]2c2ccccc2)c(F)c2c1c(=O)c(C(=O)O)cn2C1CC1 (relative stereo)', 'criterion met'),
  ('CCn1cc(C(=O)O)c(=O)c2c(N)c(F)c(NC3Cc4ccccc4C3)cc21', 'criterion not met');

---

target: LSD-1 (Homo sapiens, UniProt O60341)
pIC50: −log10 of the molar value.
Assign class by pIC50: not lower than 6 means t; lower than 6 means f.

INSERT INTO results (compound, assigned_category) VALUES
  ('CCCn1cc(C(=O)O)c(=O)c2c(N)c(F)c(NCCN[C@@H]3C[C@H]3c3ccccc3)cc21 (relative stereo)', 'f'),
  ('CC(C)n1cc(C(=O)O)c(=O)c2c(N)c(F)c(NCCN[C@@H]3C[C@H]3c3ccccc3)cc21 (relative stereo)', 'f'),
  ('CCn1cc(C(=O)O)c(=O)c2c(N)c(F)c(NCCN[C@@H]3C[C@@]34CCc3ccccc34)cc21 (relative stereo)', 't'),
  ('CCn1cc(C(=O)O)c(=O)c2c(N)c(F)c(NCCN[C@@H]3C[C@]34CCc3ccccc34)cc21 (relative stereo)', 't'),
  ('CCn1cc(C(=O)O)c(=O)c2c(N)c(F)c(N(C)CCN[C@H]3C[C@@H]3c3ccccc3)cc21 (relative stereo)', 'f'),
  ('Cn1cc(C(=O)O)c(=O)c2c(N)c(F)c(NCCN[C@@H]3C[C@H]3c3ccccc3)cc21 (relative stereo)', 'f'),
  ('Nc1c(F)c(NCCN[C@@H]2C[C@H]2c2ccccc2)cc2c1c(=O)c(C(=O)O)cn2CCO (relative stereo)', 'f');

---

target: LSD2 (Homo sapiens); experiment: LSD2 A-screen (AlphaScreen) demethylase enzymatic assay; format: biochemical; conditions: 50 μM compound; approximate values; read-out: Potency LSD-2 % Inhibition at 50 μM
Sequence (Q8NB78 whole entry): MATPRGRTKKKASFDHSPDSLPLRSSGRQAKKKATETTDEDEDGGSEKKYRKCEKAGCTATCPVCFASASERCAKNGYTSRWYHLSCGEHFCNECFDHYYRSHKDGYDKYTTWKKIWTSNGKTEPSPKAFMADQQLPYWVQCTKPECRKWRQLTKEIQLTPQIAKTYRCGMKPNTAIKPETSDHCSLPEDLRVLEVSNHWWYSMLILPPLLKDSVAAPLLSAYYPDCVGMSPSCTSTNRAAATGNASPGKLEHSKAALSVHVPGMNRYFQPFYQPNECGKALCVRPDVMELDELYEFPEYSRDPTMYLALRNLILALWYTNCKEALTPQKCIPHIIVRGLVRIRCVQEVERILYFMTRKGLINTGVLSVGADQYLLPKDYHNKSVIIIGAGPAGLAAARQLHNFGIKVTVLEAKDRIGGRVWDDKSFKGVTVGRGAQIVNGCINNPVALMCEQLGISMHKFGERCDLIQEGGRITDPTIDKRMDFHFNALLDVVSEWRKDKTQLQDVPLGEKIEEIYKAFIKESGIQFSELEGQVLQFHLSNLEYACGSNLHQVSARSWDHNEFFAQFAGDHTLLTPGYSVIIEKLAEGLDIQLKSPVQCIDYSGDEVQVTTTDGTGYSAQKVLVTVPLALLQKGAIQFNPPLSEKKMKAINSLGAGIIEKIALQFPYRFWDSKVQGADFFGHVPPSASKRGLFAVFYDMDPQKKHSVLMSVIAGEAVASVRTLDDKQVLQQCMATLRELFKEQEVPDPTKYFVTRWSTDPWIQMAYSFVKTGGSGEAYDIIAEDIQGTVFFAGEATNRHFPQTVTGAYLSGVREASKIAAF
READOUT LABEL: inhibition at 50 µM (%)

INSERT INTO assay_data (compound, unit_info, experimental_value) VALUES
  ('CCn1cc(C(=O)O)c(=O)c2c(N)c(F)c(N(C)CCN[C@H]3C[C@@H]3c3ccccc3)cc21 (relative stereo)', '%', 50),
  ('CCn1cc(C(=O)O)c(=O)c2c(N)c(F)c(N[C@@H]3C[C@H]3c3ccccc3)cc21 [Compound I-21]', '%', 0),
  ('CCn1cc(C(=O)O)c(=O)c2c(N)cc(N[C@@H]3C[C@H]3c3ccccc3)cc21 (relative stereo)', '%', 24),
  ('CCn1cc(C(=O)O)c(=O)c2c(N)cc(NC3CCCCC3)cc21', '%', 7),
  ('CCn1cc(C(=O)O)c(=O)c2c(N)c(F)c(NCCN[C@@H]3C[C@@]34CCc3ccccc34)cc21 (relative stereo)', '%', 76),
  ('CC(C)n1cc(C(=O)O)c(=O)c2c(N)c(F)c(N[C@]3(C)C[C@@H](N[C@@H]4C[C@H]4c4ccccc4)C3)cc21 (relative stereo)', '%', 2),
  ('CCn1cc(C#N)c(=O)c2c(N)c(F)c(NCCc3ccccc3)cc21', '%', 4),
  ('CCn1cc(C(=O)O)c(=O)c2c(N)c(F)c(NC3CN(c4ccccc4)C3)cc21', '%', 3),
  ('Nc1c(F)c(NCCN[C@@H]2C[C@H]2c2ccccc2)cc2c1c(=O)c(C(=O)O)cn2CCO (relative stereo)', '%', 8),
  ('CCCn1cc(C(=O)O)c(=O)c2c(N)c(F)c(NCCN[C@@H]3C[C@H]3c3ccccc3)cc21 (relative stereo)', '%', 15),
  ('CCn1cc(C(=O)O)c(=O)c2c(N)c(F)c(OCCc3ccccc3)cc21', '%', 3),
  ('CCn1cc(C(=O)O)c(=O)c2c(N)c(F)c(N[C@H]3CC[C@@H](N[C@@H]4C[C@H]4c4ccccc4)CC3)cc21 (relative stereo)', '%', 65),
  ('CCn1cc(C(=O)O)c(=O)c2c(N)c(F)c(N[C@@H]3C[C@H]3c3ccccc3)cc21 (single isomer, unassigned) [Compound I-20]', '%', 10),
  ('CCn1cc(-c2nnn[nH]2)c(=O)c2c(N)c(F)c(NCCc3ccccc3)cc21', '%', 96);

---

molecular target: GSK3α (Homo sapiens, UniProt P49840); assay: GSK3α in vitro enzymatic assay (Kinase-Glo Max luminescence); settings: recombinant human GSK3, 10 μM ATP; approximate values; read-out: Potency GSK3alpha
Sequence (P49840 whole entry): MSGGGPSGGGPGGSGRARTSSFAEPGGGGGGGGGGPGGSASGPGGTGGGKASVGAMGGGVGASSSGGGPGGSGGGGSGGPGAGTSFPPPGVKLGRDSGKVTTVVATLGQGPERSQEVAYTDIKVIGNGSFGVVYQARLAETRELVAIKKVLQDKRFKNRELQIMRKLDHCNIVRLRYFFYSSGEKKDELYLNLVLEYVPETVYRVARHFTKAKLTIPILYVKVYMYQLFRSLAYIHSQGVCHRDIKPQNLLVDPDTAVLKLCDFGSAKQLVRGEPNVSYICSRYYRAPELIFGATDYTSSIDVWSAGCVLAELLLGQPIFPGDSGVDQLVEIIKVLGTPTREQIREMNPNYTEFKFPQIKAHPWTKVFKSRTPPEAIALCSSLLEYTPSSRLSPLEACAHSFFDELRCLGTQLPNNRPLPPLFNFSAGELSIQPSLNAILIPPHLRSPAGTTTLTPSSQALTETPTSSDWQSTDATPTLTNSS
This section presents compounds with their documented IC50 values.
READOUT LABEL: IC50 (nM)

INSERT INTO results (compound, readout_label, experimental_value) VALUES
  ('Nc1c(F)c(NCCN[C@@H]2C[C@H]2c2ccccc2)cc2c1c(=O)c(C(=O)O)cn2CCO (relative stereo) [Compound I-90]', 'IC50', 990),
  ('CCn1cc(C(=O)O)c(=O)c2c(N)c(F)c(N[C@H]3CC[C@H](N[C@@H]4C[C@H]4c4ccccc4)CC3)cc21 (relative stereo) [Compound I-27]', 'IC50', 47),
  ('CCn1cc(C(=O)O)c(=O)c2c(N)c(F)c(NCCN[C@@H]3C[C@@]34CCc3ccccc34)cc21 (relative stereo) [Compound I-82]', 'IC50', 1550);

---

test: Thermodynamic aqueous solubility at pH 7.4; assay type: physicochemical; details: aqueous buffer, thermodynamic from solid, phosphate buffer pH 7.4, 25° C., approximate values, read-out: Concentration (thermodynamic aqueous solubility)
Use 1 µM as the dividing line for solubility thermodynamic at 24 h, with the line itself on the 1 side and lower values as -1.

INSERT INTO assay_data (molecule, assigned_category) VALUES
  ('CCn1cc(C#N)c(=O)c2c(N)c(F)c(NCCN[C@@H]3C[C@H]3c3ccccc3)cc21 (relative stereo)', 1),
  ('CCn1cc(C(=O)O)c(=O)c2c(N)c(F)c(NC3CCOCC3)cc21', 1),
  ('CCn1cc(C(=O)O)c(=O)c2c(N)c(F)c(NC3Cc4ccccc4C3)cc21', -1),
  ('CCn1cc(C(=O)O)c(=O)c2c(N)c(F)c(NCCN[C@@H]3C[C@]34CCc3ccccc34)cc21 (relative stereo)', 1),
  ('CCn1cc(C(=O)O)c(=O)c2c(N)c(F)c(N[C@H]3CC[C@@H](N[C@@H]4C[C@H]4c4ccccc4)CC3)cc21 (relative stereo)', 1),
  ('CCn1cc(C(N)=O)c(=O)c2c(N)c(F)c(NCCc3ccccc3)cc21', -1),
  ('CCn1cc(C(=O)O)c(=O)c2c(N)c(F)c(N[C@H]3CC[C@H](N[C@@H]4C[C@H]4c4ccccc4)CC3)cc21 (relative stereo)', 1),
  ('CCn1cc(C(=O)O)c(=O)c2c(N)c(F)c(NC3CCCCC3)cc21', -1),
  ('CCn1cc(C(N)=O)c(=O)c2c(N)c(F)c(NCCN[C@H]3C[C@@H]3c3ccccc3)cc21 (relative stereo)', 1),
  ('CCn1cc(C(=O)O)c(=O)c2c(N)c(F)c(N[C@H]3C[C@@H](c4ccccc4)C3)cc21', -1),
  ('CCn1cc(C(=O)O)c(=O)c2c(N)c(F)c(NC3CC(N[C@@H]4C[C@H]4c4ccccc4)C3)cc21 (relative stereo)', 1),
  ('CCn1cc(C(=O)O)c(=O)c2c(N)cc(NCCCc3ccccc3)cc21', -1),
  ('CCn1cc(C(=O)O)c(=O)c2c(N)c(F)c(NCc3ccccc3)cc21', -1);

Cited source: patent US20230058189A1
